These entries and their values trace back to patent US12723255B2.

System: F1 hybrid maize plants
Assay: efficacy field trial for 2,4-D tolerance
Format: in vivo
Conditions: scale 0 to 100; 8 lb ae/acre at VE-V2, V4, V8; with CTP unless label says no CTP
Decide by average injury rating, V4 Growth Stage, 8x 2,4-D: equal to or exceeding 8 means TRUE, less means FALSE.

### Prompt Textbook exercise: given the entry MON-HT3: engineered oxygenase protein, amino acid sequence SEQ ID NO:22 (protein) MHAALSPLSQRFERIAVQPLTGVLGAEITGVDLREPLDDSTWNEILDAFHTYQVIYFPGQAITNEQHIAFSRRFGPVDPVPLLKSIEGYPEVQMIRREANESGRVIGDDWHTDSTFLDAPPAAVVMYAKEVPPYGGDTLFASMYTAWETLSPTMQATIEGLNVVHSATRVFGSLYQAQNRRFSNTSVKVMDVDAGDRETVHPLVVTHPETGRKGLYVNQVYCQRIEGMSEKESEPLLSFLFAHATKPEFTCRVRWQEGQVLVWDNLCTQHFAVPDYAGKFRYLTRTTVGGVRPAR , state whether its average injury rating, V4 Growth Stage, 8x 2,4-D is greater than or equal to 8.
### Response TRUE

### Prompt Hi, just wondering whether MON-HT2: engineered oxygenase protein, amino acid sequence SEQ ID NO:18 (protein) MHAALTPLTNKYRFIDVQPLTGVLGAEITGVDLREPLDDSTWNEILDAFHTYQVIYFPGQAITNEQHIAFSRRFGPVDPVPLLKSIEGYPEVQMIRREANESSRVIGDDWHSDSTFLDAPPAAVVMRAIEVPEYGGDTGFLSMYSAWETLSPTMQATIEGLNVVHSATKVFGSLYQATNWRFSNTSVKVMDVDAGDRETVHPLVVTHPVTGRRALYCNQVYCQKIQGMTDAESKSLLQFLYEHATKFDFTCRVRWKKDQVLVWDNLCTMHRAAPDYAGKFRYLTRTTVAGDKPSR shows average injury rating, V4 Growth Stage, 8x 2,4-D of 8 or higher.
### Response FALSE

### Prompt Has MON-HT4: engineered oxygenase protein, amino acid sequence SEQ ID NO:25 (protein) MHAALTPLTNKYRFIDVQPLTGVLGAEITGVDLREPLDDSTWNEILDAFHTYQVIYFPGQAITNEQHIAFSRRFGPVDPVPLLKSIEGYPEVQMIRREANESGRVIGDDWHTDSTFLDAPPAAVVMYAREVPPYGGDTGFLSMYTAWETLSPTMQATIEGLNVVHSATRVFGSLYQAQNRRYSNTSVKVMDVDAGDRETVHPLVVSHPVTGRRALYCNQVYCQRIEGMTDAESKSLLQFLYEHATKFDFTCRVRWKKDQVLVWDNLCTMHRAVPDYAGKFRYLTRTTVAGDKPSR a recorded average injury rating, V4 Growth Stage, 8x 2,4-D greater than or equal to 8?
### Response TRUE

### Prompt Reported average injury rating, V4 Growth Stage, 8x 2,4-D reaches at least 8 for MON-HT7: engineered oxygenase protein, amino acid sequence SEQ ID NO:34 (protein) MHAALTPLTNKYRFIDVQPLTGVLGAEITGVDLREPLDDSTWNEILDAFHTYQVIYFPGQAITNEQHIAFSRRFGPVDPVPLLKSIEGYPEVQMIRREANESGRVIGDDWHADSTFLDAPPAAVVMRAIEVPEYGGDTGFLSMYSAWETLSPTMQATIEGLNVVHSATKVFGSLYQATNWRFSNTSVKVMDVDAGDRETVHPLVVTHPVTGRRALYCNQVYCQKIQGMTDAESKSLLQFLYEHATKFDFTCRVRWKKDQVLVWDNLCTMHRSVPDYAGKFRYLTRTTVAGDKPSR ?
### Response FALSE

### Prompt Could you verify whether the entry MON-HT6: engineered oxygenase protein, amino acid sequence SEQ ID NO:31 (protein) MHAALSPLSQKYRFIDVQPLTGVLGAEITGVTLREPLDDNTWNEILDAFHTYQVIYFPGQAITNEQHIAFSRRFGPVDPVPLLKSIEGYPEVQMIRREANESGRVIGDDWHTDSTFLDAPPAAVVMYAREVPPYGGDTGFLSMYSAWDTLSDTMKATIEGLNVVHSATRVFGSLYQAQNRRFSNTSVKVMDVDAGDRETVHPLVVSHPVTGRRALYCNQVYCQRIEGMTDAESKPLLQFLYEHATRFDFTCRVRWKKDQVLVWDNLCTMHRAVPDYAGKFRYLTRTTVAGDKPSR shows average injury rating, V4 Growth Stage, 8x 2,4-D of no less than 8?
### Response FALSE

### Prompt Exam item: decide whether the reported average injury rating, V4 Growth Stage, 8x 2,4-D for MON-HT5: engineered oxygenase protein, amino acid sequence SEQ ID NO:28 (protein) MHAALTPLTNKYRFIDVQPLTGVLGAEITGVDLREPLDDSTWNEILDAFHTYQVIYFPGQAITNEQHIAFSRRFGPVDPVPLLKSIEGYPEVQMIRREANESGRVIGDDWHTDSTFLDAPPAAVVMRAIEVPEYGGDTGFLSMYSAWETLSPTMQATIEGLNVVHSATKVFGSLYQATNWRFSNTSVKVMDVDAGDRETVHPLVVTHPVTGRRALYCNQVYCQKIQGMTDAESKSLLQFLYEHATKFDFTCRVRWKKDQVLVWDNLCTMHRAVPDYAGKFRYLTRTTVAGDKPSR is at least 8.
### Response FALSE

With those in mind, consider the next molecule.
### Prompt Check this molecule for average injury rating, V4 Growth Stage, 8x 2,4-D at or above 8: MON-HT1: engineered oxygenase protein, amino acid sequence SEQ ID NO:14 (protein) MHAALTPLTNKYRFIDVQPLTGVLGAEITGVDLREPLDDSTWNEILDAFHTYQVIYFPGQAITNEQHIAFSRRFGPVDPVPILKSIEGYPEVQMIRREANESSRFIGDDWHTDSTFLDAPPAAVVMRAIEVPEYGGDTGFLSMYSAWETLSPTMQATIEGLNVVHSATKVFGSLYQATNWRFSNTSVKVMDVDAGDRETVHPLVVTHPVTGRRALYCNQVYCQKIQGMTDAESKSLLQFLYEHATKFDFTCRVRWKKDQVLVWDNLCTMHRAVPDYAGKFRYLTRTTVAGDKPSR
### Response FALSE
